- System Under Test: NMDA (N-methyl-D-aspartate) receptor (Rattus norvegicus, UniProt P35439)
- Construct: freshly removed rat cerebra were homogenized; from tissue; host or cells: rat cerebrum, washed membranes
- Procedure Text: Binding of ^3 H-5,7-dichlorokynurenic acid (displacement on rat cerebral membranes)
- Conditions Used: rat cerebra membranes, pH 7.4, 30 minutes on ice
For each record, write down the corresponding Ki.
API: value field is a number in nM; no unit string.

// fetch Ki given entry `O=C(O)CCc1nc2c3c([nH]c(=O)n2n1)-c1ccccc1CC3`
100

// fetch Ki given entry `CCOC(=O)c1nc2c3c([nH]c(=O)n2n1)-c1ccccc1CC3`
650

// fetch Ki given entry `O=C(NCc1ccc([N+](=O)[O-])cc1)c1nc2c3c([nH]c(=O)n2n1)CCCC3`
2000

Data provenance is patent US5654310A.
